Overview of recorded GI50 for various compounds
test system: MDA-MB-435; test: Cytotoxicity against Homo sapiens (human) MDA-MB-435 cells after 48 hr by sulforhodamine B assay; assay type: functional; conditions: MDA-MB-435, 48 h
Only the number, expressed in nM, is required.

Q. Tell me the measured GI50 of ClCc1cccc(Cn2cnc3ncnc(Cl)c32)c1 , please.
A. 3460

Q. Next entry: ClCc1ccccc1Cn1cnc2c(Cl)ncnc21
A. 3020

Q. How about ClCc1cccc(Cn2cnc3c(Cl)nc(Cl)nc32)c1 ?
A. 1690

Q. Similarly, Nc1nc(Cl)c2ncn(Cc3cccc(CCl)c3)c2n1 ?
A. 3810

Q. Request: ClCc1ccccc1Cn1cnc2ncnc(Cl)c21
A. 1940

Q. Same question, ClCc1cccc(Cn2cnc3nc(Cl)nc(Cl)c32)c1 this time
A. 1470

====

test system: DU-145; experiment: Cytotoxicity against Homo sapiens (human) DU145 cells after 48 hr by sulforhodamine B assay; assay type: functional; settings: DU-145, 48 h
# strict inequality: GI50 < 2 µM yields T, everything else yields F

ClCc1ccc(Cn2cnc3nc(Cl)nc(Cl)c32)cc1 :: T
ClCc1cccc(Cn2cnc3c(Cl)nc(Cl)nc32)c1 :: T
ClCc1cccc(Cn2cnc3nc(Cl)nc(Cl)c32)c1 :: T
Nc1nc(Cl)c2ncn(Cc3cccc(CCl)c3)c2n1 :: F
ClCc1cccc(Cn2cnc3ncnc(Cl)c32)c1 :: F

Q. I wonder whether ClCc1ccccc1Cn1cnc2c(Cl)nc(Cl)nc21 has GI50 below 2 µM. Can you tell?
A. T

Q. Continue with ClCc1cccc(Cn2cnc3c(Cl)ncnc32)c1
A. F

====

Below, each of the compounds is paired with its reported TGI value.
test system: TK-10; experiment: Cytotoxicity against Homo sapiens (human) TK10 cells after 48 hr by sulforhodamine B assay; format: functional; details: TK-10, 48 h

Nc1nc(Cl)c2ncn(Cc3cccc(CCl)c3)c2n1 :: 7.08 µM
ClCc1ccc(Cn2cnc3c(Cl)ncnc32)cc1 :: 4.67 µM
ClCc1ccc(Cn2cnc3c(Cl)nc(Cl)nc32)cc1 :: 20.4 µM
Nc1nc(Cl)c2ncn(Cc3ccccc3CCl)c2n1 :: 36.3 µM
ClCc1ccccc1Cn1cnc2c(Cl)ncnc21 :: 46.8 µM

Q. # get_value(readout='TGI', item= ClCc1cccc(Cn2cnc3ncnc(Cl)c32)c1 )
A. 3.31 µM

Q. Now consider ClCc1ccc(Cn2cnc3nc(Cl)nc(Cl)c32)cc1 and answer again.
A. 0.29 µM

====

Quick reference for log10(CC50) among some compounds
test system: NCI-H460; assay: Cytotoxicity against Homo sapiens (human) NCI-H460 cells after 48 hr by sulforhodamine B assay; assay type: functional; settings: NCI-H460, 48 h, read-out: LC50 (the source's name)
Please interpret these as log10 of CC50 where CC50 is in µM.

Examples from the recorded data:
ClCc1cccc(Cn2cnc3ncnc(Cl)c32)c1 :: 1.96
ClCc1ccc(Cn2cnc3c(Cl)ncnc32)cc1 :: 1.43
ClCc1ccc(Cn2cnc3c(Cl)nc(Cl)nc32)cc1 :: 1.46
ClCc1ccc(Cn2cnc3nc(Cl)nc(Cl)c32)cc1 :: 1.90
ClCc1ccc(Cn2cnc3ncnc(Cl)c32)cc1 :: 1.24

Q. Could you tell me which log10(CC50) is on file for ClCc1cccc(Cn2cnc3nc(Cl)nc(Cl)c32)c1 ?
A. 0.74

Q. Try this compound next: Nc1nc(Cl)c2ncn(Cc3cccc(CCl)c3)c2n1
A. 1.68

Q. Can you check Nc1nc(Cl)c2ncn(Cc3ccc(CCl)cc3)c2n1 next?
A. 1.80

====

Readings of TGI for the listed molecules
tested on: NCI-H522; assay: Cytotoxicity against Homo sapiens (human) NCI-H522 cells after 48 hr by sulforhodamine B assay; assay type: functional; conditions: NCI-H522, 48 h
Reply with just the number (in µM).

Reference set, count: 6
ClCc1cccc(Cn2cnc3ncnc(Cl)c32)c1 :: 24
ClCc1cccc(Cn2cnc3nc(Cl)nc(Cl)c32)c1 :: 3.54
ClCc1ccccc1Cn1cnc2ncnc(Cl)c21 :: 75.9
ClCc1ccccc1Cn1cnc2c(Cl)nc(Cl)nc21 :: 1.99
ClCc1ccc(Cn2cnc3nc(Cl)nc(Cl)c32)cc1 :: 4.57
ClCc1cccc(Cn2cnc3c(Cl)ncnc32)c1 :: 66.1

Kindly review the next molecule as well.
Q. Find TGI (NCI-H522) for the entry Nc1nc(Cl)c2ncn(Cc3cccc(CCl)c3)c2n1
A. 13.5

====

test system: RPMI-8226; assay: Cytotoxicity against Homo sapiens (human) RPMI8226 cells after 48 hr by sulforhodamine B assay; format: functional; details: RPMI-8226, 48 h
// reported GI50 for each item listed
Kindly provide the numeric value in µM only, without the unit symbol.

The cases that follow already have their GI50 on record.
ClCc1ccccc1Cn1cnc2ncnc(Cl)c21 :: 2.08
ClCc1cccc(Cn2cnc3ncnc(Cl)c32)c1 :: 13.8
ClCc1ccc(Cn2cnc3c(Cl)nc(Cl)nc32)cc1 :: 1.74
ClCc1ccccc1Cn1cnc2nc(Cl)nc(Cl)c21 :: 0.21

Q. Consider the compound ClCc1cccc(Cn2cnc3c(Cl)nc(Cl)nc32)c1 and give its measured GI50.
A. 3.31

Q. Please do the same for ClCc1ccccc1Cn1cnc2c(Cl)nc(Cl)nc21 as well.
A. 0.38

Q. Follow-up entry: ClCc1ccccc1Cn1cnc2c(Cl)ncnc21
A. 14.1

Q. Repeat with ClCc1cccc(Cn2cnc3c(Cl)ncnc32)c1
A. 3.8

Q. // same read-out, input: ClCc1ccc(Cn2cnc3c(Cl)ncnc32)cc1
A. 2.13

Q. Would you mind doing ClCc1ccc(Cn2cnc3ncnc(Cl)c32)cc1 as well?
A. 1.28

Q. Do the same for Nc1nc(Cl)c2ncn(Cc3cccc(CCl)c3)c2n1 please
A. 2.39

Q. Same question for ClCc1cccc(Cn2cnc3nc(Cl)nc(Cl)c32)c1 please.
A. 1.69

Q. # iterate: ClCc1ccc(Cn2cnc3nc(Cl)nc(Cl)c32)cc1
A. 1.65

====

Measured LC50 (concentration killing 50% of cells) of individual entries
system: OVCAR-4; experiment: Cytotoxicity against Homo sapiens (human) OVCAR4 cells after 48 hr by sulforhodamine B assay; type: functional; conditions: OVCAR-4, 48 h
Field format: number, assumed µM, no unit text.

Q. Give OVCAR-4 LC50 (concentration killing 50% of cells) for ClCc1cccc(Cn2cnc3ncnc(Cl)c32)c1
A. 46.8

Q. Now this one: Nc1nc(Cl)c2ncn(Cc3ccc(CCl)cc3)c2n1
A. 57.5

Q. Follow-up item: ClCc1cccc(Cn2cnc3nc(Cl)nc(Cl)c32)c1
A. 5.37

Q. Please give the result for ClCc1cccc(Cn2cnc3c(Cl)nc(Cl)nc32)c1 too.
A. 61.7

Q. Also need ClCc1ccccc1Cn1cnc2ncnc(Cl)c21 , thanks.
A. 77.6

Q. Now try Nc1nc(Cl)c2ncn(Cc3cccc(CCl)c3)c2n1 .
A. 9.54

Q. Proceed to Nc1nc(Cl)c2ncn(Cc3ccccc3CCl)c2n1
A. 50.1

Q. Same lookup for ClCc1ccccc1Cn1cnc2c(Cl)ncnc21 , please.
A. 45.7

Q. Follow-up entry: ClCc1ccc(Cn2cnc3c(Cl)nc(Cl)nc32)cc1
A. 61.7

Q. Another compound to look at: ClCc1cccc(Cn2cnc3c(Cl)ncnc32)c1
A. 26.3

====

test system: HCT-116; test: Cytotoxicity against Homo sapiens (human) HCT116 cells after 48 hr by sulforhodamine B assay; type: functional; conditions: HCT-116, 48 h, read-out: LC50 (the source's name)
observable: CC50 (µM)
Hi! Could you send only the number? It should be in µM, unit omitted.

For orientation, consider the following solved cases.
ClCc1ccccc1Cn1cnc2c(Cl)nc(Cl)nc21 :: 0.75
ClCc1cccc(Cn2cnc3nc(Cl)nc(Cl)c32)c1 :: 4.46
ClCc1ccc(Cn2cnc3c(Cl)nc(Cl)nc32)cc1 :: 7.59

We now examine a further compound.
Q. What value of measured CC50 is listed for ClCc1cccc(Cn2cnc3c(Cl)ncnc32)c1 ?
A. 6.31

====

test system: 786-0; assay: Cytotoxicity against Homo sapiens (human) 786-0 cells after 48 hr by sulforhodamine B assay; type: functional; conditions: 786-0, 48 h
observable: TGI (µM)
Could you give me the number in µM? Just the number is fine.

ClCc1cccc(Cn2cnc3c(Cl)nc(Cl)nc32)c1 :: 26.9

Q. Look up TGI with 786-0 for this molecule: ClCc1cccc(Cn2cnc3ncnc(Cl)c32)c1
A. 4.07

Q. How about ClCc1ccccc1Cn1cnc2nc(Cl)nc(Cl)c21 ?
A. 7.07

Q. Same question, ClCc1ccccc1Cn1cnc2c(Cl)nc(Cl)nc21 this time
A. 3.47

Q. How about this molecule: ClCc1cccc(Cn2cnc3c(Cl)ncnc32)c1
A. 19.9

Q. Again, but for ClCc1ccc(Cn2cnc3c(Cl)nc(Cl)nc32)cc1
A. 29.5

Q. Another molecule to look at: Nc1nc(Cl)c2ncn(Cc3ccccc3CCl)c2n1
A. 52.5

Q. Now this one: ClCc1ccccc1Cn1cnc2c(Cl)ncnc21
A. 38

Q. Follow-up item: ClCc1ccc(Cn2cnc3ncnc(Cl)c32)cc1
A. 3.01

Q. Also, Nc1nc(Cl)c2ncn(Cc3cccc(CCl)c3)c2n1 please.
A. 26.3

Q. Ok, now ClCc1cccc(Cn2cnc3nc(Cl)nc(Cl)c32)c1
A. 2.88

Q. // next record ClCc1ccc(Cn2cnc3c(Cl)ncnc32)cc1
A. 3.98

Q. For Nc1nc(Cl)c2ncn(Cc3ccc(CCl)cc3)c2n1 then?
A. 93.3

Q. Now consider ClCc1ccccc1Cn1cnc2ncnc(Cl)c21 .
A. 12.9

Q. Check ClCc1ccc(Cn2cnc3nc(Cl)nc(Cl)c32)cc1 too.
A. 3.71
